Value source: patent US20150329864A1

Experiment: Cytotoxicity by neutral red dye uptake in HCV replicon cultures
Assay type: cell-based
Conditions: human, AVA5 HCV replicon cell line (sub-genomic CON1, genotype 1b); single drug, Table 9; read-out: CC50
Method: Antiviral activity against HCV was assessed in a 3-day assay (Okuse, et al., 2005; Antiviral. Res. 65:23; Korba, et al., 2008, Antiviral Res. 77:56) using the stably-expressing HCV replicon cell line, AVA5 (sub-genomic (CON1), genotype 1b) (Blight, et al., 2000; Science 290:1972) maintained as sub-confluent cultures on 96-well plates. Antiviral activity was determined by blot hybridization analysis of intracellular HCV RNA (normalized to the level of cellular B-actin RNA in each culture sample). […]
endpoint.name: CC50 at 3 day

Input line: Give the measured CC50 at 3 day for CCC[C@H](NC(=O)[C@@H]1[C@H]2CCC[C@H]2CN1C(=O)[C@@H](NC(=O)[C@@H](NC(=O)c1cnccn1)C1CCCCC1)C(C)(C)C)C(=O)C(=O)NC1CC1 [Vertex (telaprevir), telaprevir, reference compound]
Output line: < 80 µM
